# Measured Target: p38 (Homo sapiens)
# Construct: 6xHis (N); made in house; host or cells: E. coli
# Procedure Details: in vitro inhibition of p38 (CPSB): purified recombinant 6xHis-p38, myelin basic protein substrate, 33P-ATP
# Assay type: biochemical
# Particulars: @ 5 μm
Metric: CPSB % inhibition (%)

| Compound | Measured Target | Unit Symbol | CPSB % inhibition |
| --- | --- | --- | --- |
| O=C1c2ccccc2C(=O)N1CCCCc1nc(-c2ccncc2)c(-c2ccc(F)cc2)n1Cc1ccccc1 [Compound 43] | p38 (Homo sapiens) | % | 8 |
| C[Si](C)(C)CCOCn1c(CO)nc(-c2ccncc2)c1-c1ccc(F)cc1 [Compound 36] | p38 (Homo sapiens) | % | 6 |

(A) CC(=O)OCCCCc1nc(-c2ccncc2)c(-c2ccc(F)cc2)n1C(=O)OCc1ccccc1 [Compound 18]
(B) O=C1c2ccccc2C(=O)N1CCSc1nc(-c2ccc(F)cc2)c(-c2ccncc2)[nH]1 [Compound 25]
(C) CC(=O)OCCCCc1nc(-c2ccncc2)c(-c2ccc(F)cc2)n1Cc1ccccc1 [Compound 42]
INPUT: Sort these compounds on CPSB % inhibition so the largest reading comes first. Form entry: ranked labels (order as requested).
OUTPUT: B, A, C

###

# Measured Target: p38 (Homo sapiens, UniProt Q16539)
# Construct: 6xHis (N); made in house; host or cells: E. coli
# Sequence (Q16539 whole entry): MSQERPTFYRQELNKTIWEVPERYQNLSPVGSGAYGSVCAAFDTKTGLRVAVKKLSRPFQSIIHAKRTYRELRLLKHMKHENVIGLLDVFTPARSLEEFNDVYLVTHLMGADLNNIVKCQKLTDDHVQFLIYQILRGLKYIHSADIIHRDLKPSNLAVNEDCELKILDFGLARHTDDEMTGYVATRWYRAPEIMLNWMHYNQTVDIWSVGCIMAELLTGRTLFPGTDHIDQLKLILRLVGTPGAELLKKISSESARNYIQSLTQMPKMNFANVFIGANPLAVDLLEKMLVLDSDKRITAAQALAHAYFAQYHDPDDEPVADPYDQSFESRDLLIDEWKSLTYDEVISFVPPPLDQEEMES
# Procedure Details: in vitro inhibition of p38 (CPSB): purified recombinant 6xHis-p38, myelin basic protein substrate, 33P-ATP
# Assay type: biochemical
# Particulars: @ 20 μm
Metric: CPSB % inhibition (%)

Worked set:
| Compound | CPSB % inhibition / % |
| --- | --- |
| O=S(=O)(NCCCSc1nc(-c2ccc(F)cc2)c(-c2ccncc2)[nH]1)c1ccccc1 [Compound 30] | 92 |
| O=C(NCCCSc1nc(-c2ccc(F)cc2)c(-c2ccncc2)[nH]1)c1ccco1 [Compound 29] | 91 |
| C[Si](C)(C)CCOCn1c(CCCCO)nc(-c2ccncc2)c1-c1ccc(F)cc1 [Compound 46] | 9 |
| CC(=O)OCCCCc1nc(-c2ccncc2)c(-c2ccc(F)cc2)n1COCC[Si](C)(C)C [Compound 45] | 8 |

(A) CNC(=O)Sc1nc(-c2ccc(F)cc2)c(-c2ccncc2)[nH]1 [Compound 5]
(B) NCCCSc1nc(-c2ccc(F)cc2)c(-c2ccncc2)[nH]1 [Compound 3]
INPUT: Would you mind telling me which has the lower recorded CPSB % inhibition between A and B ? Response format: the label of the selected entry.
OUTPUT: B

###

# Measured Target: p38 (Homo sapiens)
# Construct: 6xHis (N)
# Procedure Details: in vitro inhibition of p38 (CPSB): purified recombinant 6xHis-p38, myelin basic protein substrate, 33P-ATP
Metric: IC50 (nM)

| Cpd Smiles | Recorded Number |
| --- | --- |
| CC(=O)OCCCCc1nc(-c2ccc(F)cc2)c(-c2ccncc2)n1Cc1ccccc1 | 2630 |
| CCCSc1nc(-c2ccncc2)c(-c2ccc(F)cc2)[nH]1 | 680 |
| O=C1c2ccccc2C(=O)N1CCCCSc1nc(-c2ccncc2)c(-c2ccc(F)cc2)[nH]1 | 2460 |

(1) C=CCSc1nc(-c2ccncc2)c(-c2ccc(F)cc2)[nH]1
(2) CC(C)Sc1nc(-c2ccncc2)c(-c2ccc(F)cc2)[nH]1
INPUT: In terms of reported IC50, does 1 or 2 have the smaller number? Please indicate the selected item by its label.
OUTPUT: 2
